Assay: Selectivity ratio of CC50 for monkey LLC-MK2 cells to IC50 for epimastigote stage of epimastigote stage of Trypanosoma cruzi Y
Format: ADME, cell-based
Details: read-out: Ratio CC50/IC50
metric: selectivity ratio
# answer = number (no unit)

Form field: reported selectivity ratio of CCCCNc1nc2cc(OC)ccc2nc1SC
1.1

For the molecule COc1ccc2nc(N(C)C)c(S(C)(=O)=O)nc2c1 , what selectivity ratio is on record?
6.8

If you can, please state the reported selectivity ratio value of COc1ccc2nc(Nc3ccccc3)c(Nc3ccccc3)nc2c1 .
1

Need selectivity ratio of CCCCNc1nc2ccccc2nc1SC , thanks.
1.2

----------
Below, each entry is listed with its recorded selectivity ratio.
Experiment: Selectivity ratio of CC50 for monkey LLC-MK2 cells to IC50 for epimastigote stage of epimastigote stage of Trypanosoma cruzi Y
Format: ADME, cell-based
Conditions: read-out: Ratio CC50/IC50

Example compounds with recorded selectivity ratio:
Quick one: selectivity ratio for c1ccc(-c2nc3ccccc3nc2-c2ccc(OCCN3CCCCC3)cc2)cc1 ?
1.8

# lookup: selectivity ratio of COc1ccc2nc(S(C)(=O)=O)c(NCCO)nc2c1
2.6

State the recorded selectivity ratio for this entry: COc1ccc2nc(SC)c(NCCC(C)C)nc2c1
0.7

Reported selectivity ratio, compound CCCCNc1nc2ccc(OC)cc2nc1NCCCC : ____
3.2

Next:
What value of selectivity ratio has been reported for the following compound? CS(=O)(=O)c1nc2ccc(Cl)cc2nc1NC1CCCCC1
38.3

Returns the measured selectivity ratio for the input compound. Input: COc1ccc2nc(-c3ccccc3)c(S(C)(=O)=O)nc2c1
9.3

GET /values?readout=selectivity ratio&item= CS/C(=C/[N+](=O)[O-])Nc1ccc(N(C)C)cc1
6.6

selectivity ratio lookup needed for COc1ccc2nc(-c3ccccc3)c(NCCN3CCCCC3)nc2c1 , thanks.
3.8

Which selectivity ratio is listed for COc1ccc2nc(Cl)c([S+](C)[O-])nc2c1 (configuration not stated) ?
39.2

Query (compound): CSC(=C[N+](=O)[O-])SC ; field requested: selectivity ratio
18.3

Look up selectivity ratio for this compound: CCCCNc1nc2cc(OC)ccc2nc1Cl
7.9

Any idea what its selectivity ratio is? The compound is CCCCNc1nc2cc(OC)ccc2nc1-c1ccccc1
12.5

----------
Assay: Selectivity ratio of CC50 for mouse J774A1 cells to IC50 for promastigote stage of Leishmania amazonensis WHOM/BR/75/JOSEFA
Type: ADME, cell-based, J774.A1
Details: read-out: Ratio CC50/IC50
Would you mind sorting the entries by selectivity ratio according to these classes? low end: < 4; middle: ≥ 4 and < 10; high end: ≥ 10

Observe how each entry below is paired with its result.
Just checking, what class would you give CS(=O)(=O)c1nc2ccc(Br)cc2nc1Cl here?
high end

Which bin should I file COc1ccc2nc(SC)c(NC3CCCCC3)nc2c1 under?
low end

Into which bin does this compound go? COc1ccc(-c2nc3ccc(Cl)cc3nc2-c2ccccc2)cc1
middle

Given COc1ccc2nc(NC3CCCCC3)c(SC)nc2c1 , name the class its selectivity ratio places it in.
low end

Please classify: Clc1cc2nc(-c3ccccc3)c(-c3ccccc3)nc2cc1Cl
high end

Please report the category associated with C[S+]([O-])c1nc2ccc(Cl)cc2nc1NC1CCCCC1 (configuration not stated) , nothing else.
high end

---
Kindly state the category for this compound: CS(=O)(=O)c1nc2ccc(Cl)cc2nc1Cl
high end

Textbook exercise: identify the category of the compound given here, CCCCNc1nc2ccccc2nc1SC , according to its measured value.
low end

Form: Item = COc1ccc2nc(-c3ccccc3)c(NCCN3CCCCC3)nc2c1 ; Class = ?
low end

# bin lookup: classify CCCCNc1nc2cc(OC)ccc2nc1S(C)(=O)=O by its selectivity ratio
middle

Looking at CS(=O)(=O)c1nc2ccc(Cl)cc2nc1NC1CCCCC1 , which class would you pick?
high end

Looking at CCCCNc1nc2cc(OC)ccc2nc1Cl , which class would you pick?
middle

Lab note: which band did COc1ccc(-c2nc3ccccc3nc2-c2ccc(OC)cc2)cc1 land in?
high end

----------
Experiment: Selectivity ratio of CC50 for monkey LLC-MK2 cells to IC50 for amastigote stage of Trypanosoma cruzi Y
Format: ADME, cell-based
Settings: read-out: Ratio CC50/IC50
Simple rule here: selectivity ratio less than 2 is 1, otherwise 0.

For orientation, consider the following solved cases.
State whether 2 exceeds selectivity ratio recorded for CCCCNc1nc2ccc(OC)cc2nc1S(C)(=O)=O .
0

Check if selectivity ratio falls below 2 for COc1ccc2nc(NC3CCCCC3)c([S+](C)[O-])nc2c1 (stereo not given) .
0

selectivity ratio under 2? Item: C[S+]([O-])c1nc2ccc(Cl)cc2nc1NC1CCCCC1 (stereo not given)
0

In the record for COc1ccc2nc(NCC(C)C)c(S(C)(=O)=O)nc2c1 , is selectivity ratio less than 2?
0

Given the entry CS(=O)(=O)c1nc2ccc(Cl)cc2nc1Cl , would its reported selectivity ratio be below 2?
1

More entries:
Please indicate whether the reported selectivity ratio of COc1ccc(-c2nc3ccccc3nc2-c2ccc(OC)cc2)cc1 is strictly below 2.
0

Identify whether the compound COc1ccc2nc(NCCO)c(S(C)(=O)=O)nc2c1 records selectivity ratio below 2.
1

Determine if CS(=O)(=O)c1nc2ccc(Br)cc2nc1NCCO shows selectivity ratio strictly lower than 2.
1

selectivity ratio strictly < 2 for this compound? CS(=O)(=O)c1nc2ccc(Br)cc2nc1Cl
1

Lab log: compare recorded selectivity ratio with 2; is it strictly lower for CS(=O)(=O)c1nc2ccc(Cl)cc2nc1NC1CCCCC1 ?
0

----------
Experiment: Selectivity ratio of CC50 to IC50 for promastigote stage of Leishmania amazonensis WHOM/BR/75/JOSEFA
Parameters: reference not given here
// map selectivity ratio onto a label; ranges c1 = under 5, c2 = from 5 up to 20, c3 = 20 and over

Illustrative cases are given below, each with its answer.
Assign a bin to COc1ccc2nc(S(C)(=O)=O)c(NCCO)nc2c1
c1

Kindly identify the class of CS(=O)(=O)c1nc2ccc(Br)cc2nc1NCCO .
c3

Class label required: CCCCNc1nc2cc(Br)ccc2nc1S(C)(=O)=O
c3

Bin? COc1ccc2nc(-c3ccccc3)c(NCCN3CCCCC3)nc2c1
c1

Input CS(=O)(=O)c1nc2ccc(Cl)cc2nc1Cl ; output its category
c3

---
Sort COc1ccc2nc(NCCO)c(S(C)(=O)=O)nc2c1 into one of the categories.
c2

Where would CCCCNc1nc2ccc(OC)cc2nc1S(C)(=O)=O land among the classes by reported selectivity ratio?
c2

State the class of the compound shown: CS(=O)(=O)c1nc2ccccc2nc1Cl
c2

Using the reported selectivity ratio, which band applies to COc1ccc2nc(N(C)C)c(S(C)(=O)=O)nc2c1 ?
c1

Bin this entry: CSc1nc2ccc(Cl)cc2nc1Cl
c3

Class for COc1ccc2nc(Cl)c(SC)nc2c1 ?
c2

Hi there! Could you help me figure out the category for CSC(=C[N+](=O)[O-])SC please?
c2

Which selectivity ratio band matches COc1ccc2nc(NC3CCCCC3)c(SC)nc2c1 ?
c1

# bin label for COc1ccc2nc(Nc3ccccc3)c(Nc3ccccc3)nc2c1
c1

----------
Test: Selectivity ratio of CC50 for monkey LLC-MK2 cells to IC50 for epimastigote stage of epimastigote stage of Trypanosoma cruzi Y
metric: selectivity ratio

For orientation, consider the following solved cases.
Value lookup for selectivity ratio; key = COc1ccc2nc(Cl)c([S+](C)[O-])nc2c1 (configuration not stated)
39.2

Suppose we examine the compound CCCCNc1nc2cc(Br)ccc2nc1SC ; what selectivity ratio value has been reported?
0.9

Now turn to the next compound.
// lookup selectivity ratio for COc1ccc2nc(SC)c(NCC(C)C)nc2c1
0.7

----------
Reported selectivity ratio values for a set of compounds
Test: Selectivity ratio of CC50 for monkey LLC-MK2 cells to IC50 for epimastigote stage of epimastigote stage of Trypanosoma cruzi Y

I'd like to know its selectivity ratio. The compound in question is CSC(=C[N+](=O)[O-])SC
18.3

Which value of selectivity ratio has been reported for c1ccc(-c2nc3ccccc3nc2-c2ccc(OCCN3CCCCC3)cc2)cc1 in the records?
1.8

I would be grateful if you could share the reported selectivity ratio for CSc1nc2ccc(Br)cc2nc1Cl .
9.2

I am curious: what selectivity ratio value has been reported for COc1ccc2nc(S(C)(=O)=O)c(NC3CCCCC3)nc2c1 ?
2.7

Return reported selectivity ratio; argument: CSc1nc2ccccc2nc1Cl
8.1

Which selectivity ratio value belongs to CCCCNc1nc2cc(Cl)ccc2nc1SC ?
1

What does the record list as selectivity ratio for CS(=O)(=O)c1nc2ccc(Cl)cc2nc1Cl ?
25.9

For the compound CCCCNc1nc2cc(OC)ccc2nc1Cl , what selectivity ratio is on record?
7.9

Report selectivity ratio for CS(=O)(=O)c1nc2ccccc2nc1NCCO please.
4.4

Recorded values, source ChEMBL document CHEMBL3396970.
